tested on: FpMiniIII; assay: filter binding; settings: Enzyme-specific cleavage buffer (Table S1, mostly not in material) with MgCl2 replaced by 1 mM CaCl2; 1.5 nM 33P-dsRNA, 50 ul, 1 h at room temperature …
pKd: −log10 of the molar value.
parameter measured: pKd

[[record]]
seq = "CCUGUCCCCCGCCGAAGUCGCUGCAAUU / AAUUGCAGCGACUUCGGCGGGGGACAGG [NEG]"
tested_on = "FpMiniIII"
parameter_measured = "pKd"
sign_qualifier = "="
observed_measurement = 4.70

[[record]]
seq = "GCUGGGAGGGAAACCUCUCUCUCUGGCC / GGCCAGAGAGAGAGGUUUCCCUCCCAGC [POS-ACCU]"
tested_on = "FpMiniIII"
parameter_measured = "pKd"
sign_qualifier = "<"
observed_measurement = 4.00


Source: paper PMC5141509
